tested.on: YY1 labelled with NTA ATTO 550 (UniProt P25490 1-414)
Sequence (P25490 whole entry): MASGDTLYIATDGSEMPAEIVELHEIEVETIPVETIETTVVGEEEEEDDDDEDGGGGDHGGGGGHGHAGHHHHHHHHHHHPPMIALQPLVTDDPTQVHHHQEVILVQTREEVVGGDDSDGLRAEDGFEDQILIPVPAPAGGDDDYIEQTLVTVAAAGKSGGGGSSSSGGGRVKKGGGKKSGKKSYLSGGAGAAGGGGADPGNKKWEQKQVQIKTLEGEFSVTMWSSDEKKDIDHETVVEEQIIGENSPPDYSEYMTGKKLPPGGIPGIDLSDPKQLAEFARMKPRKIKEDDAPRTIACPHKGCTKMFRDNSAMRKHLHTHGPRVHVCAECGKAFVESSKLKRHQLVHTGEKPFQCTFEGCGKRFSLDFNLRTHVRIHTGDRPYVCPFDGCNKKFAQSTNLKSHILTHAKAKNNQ
method.description: fluorescence anisotropy; apparent KD; 0.2 uM labelled YY1, DNA titrated; 100 mM NaCl; Anisotropy: 10 mM HEPES pH 7.5, 100 mM NaCl, 20 C; EMSA: 0.5 uM DNA, 20% (v/v) of binding buffer (10 mM HEPES pH 7.5, 1 mM MgCl2, 100 mM KCl, 10% glycerol, 0.1)
condition.notes: protein: recombinant; tags: N-terminal His6 (NTA ATTO 550 label)
property: Kd (µM)

binder	property	result
AAV P5 DNA (dsDNA) DNA 1: AGGGTCTCCATTTTGAAGCG DNA 2: CGCTTCAAAATGGAGACCCT	Kd	3.7
